Values from patent US20170313750A1

Measured Y2 EC50, Actone functional potency assay of individual entries
Molecular target: T1, human Y2 receptor (P49146, NPY2R_HUMAN, Uniprot) (human, UniProt P49146 1-381)
T1 sequence (looked up): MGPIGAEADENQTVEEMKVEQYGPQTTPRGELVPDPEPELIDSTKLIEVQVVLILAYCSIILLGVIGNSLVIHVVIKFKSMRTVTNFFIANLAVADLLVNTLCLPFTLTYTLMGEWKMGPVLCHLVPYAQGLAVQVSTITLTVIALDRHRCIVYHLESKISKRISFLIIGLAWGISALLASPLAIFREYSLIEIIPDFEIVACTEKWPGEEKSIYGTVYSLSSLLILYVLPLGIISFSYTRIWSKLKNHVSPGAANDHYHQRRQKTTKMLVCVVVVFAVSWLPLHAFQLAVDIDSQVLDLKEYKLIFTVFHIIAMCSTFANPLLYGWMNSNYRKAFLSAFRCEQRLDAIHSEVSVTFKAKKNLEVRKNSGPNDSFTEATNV
Assay: cell-based or functional assay
Numbered stars: 1 amine (or outer) side, 2 acyl side, 3 side chain; on linkers, the order of the positions; unused ones are H or OH. Side chains are listed from the residue outwards. * marks the point of attachment. C18 diacid = O=C(O)CCCCCCCCCCCCCCCCC(=O)*; γGlu = O=C(O)[C@H](CCC(=O)[*:2])N[*:1]; Isovaleryl = CC(C)CC(=O)*; AEEA = NCCOCCOCC(=O)O
assayMetric: Y2 EC50, Actone functional potency assay (nM)

binder | measured
Isovaleryl-RPEK([γGlu-C18 diacid])PTEDASPEELQRYYQSLRHYYNWLTRQRY-NH2 (also called Compound 43) | 0.77
RPEKPPEDASPEELQRYYASLRHYYNWLTRQRY (N-terminal alpha-amino (position 4): 3-methylbutanoyl; Lys7 (hPYY(1-36) numbering) epsilon-amino: [(4S)-4-carboxy-4-[[(4S)-4-carboxy-4-(19-carboxynonadecanoylamino)butanoyl]amino]butanoyl]; C-terminal amide, also called Compound 12; 12) | 4.35
RPEKPPEDASPEELQRYYASLRHYYNWLTRQRY (N-terminal alpha-amino (position 4): 3-methylbutanoyl; Lys7 (hPYY(1-36) numbering) epsilon-amino: [2-[2-[2-[[(4S)-4-carboxy-4-(13-carboxytridecanoylamino)butanoyl]amino]ethoxy]ethoxy]acetyl]; C-terminal amide, also called Compound 71; 71) | 0.5
Isovaleryl-RPEAPPK([γGlu-AEEA-γGlu-C18 diacid])DASPEELQRYYESLRHYYNWLTRQRY-NH2 (also called Compound 54; 54) | 1.6
